target: human Fc (human); assay: ELISA, negative control
Quantity kind: optical density
Report field: quantity (unit follows the number).

Problem: Complete the entry with optical density for 369_C05 (antibody, V domains shown) VH: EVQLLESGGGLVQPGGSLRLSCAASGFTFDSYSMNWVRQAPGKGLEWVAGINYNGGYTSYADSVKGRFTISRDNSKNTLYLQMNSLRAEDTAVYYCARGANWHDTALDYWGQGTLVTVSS VL: DIQMTQSPSSLSASVGDRVTITCRASQSISSYVNWYQQKPGKAPKLVIYATTSRHSGVPSRFSGSGSGTDFTLTISSLQPEDFATYYCQQSYNSPLTFGGGTKVEIK
Solution: 0.32 OD

Problem: Complete the entry with optical density for 367_C12 (antibody, V domains shown) VH: EVQLLESGGGLVQPGGSLRLSCAASGFTFSSYGMHWVRQAPGKGLEWVSGINYNGGYTSYADSVKGRFTISRDNSKNTLYLQMNSLRAEDTAVYYCARAATWHDTHLDYWGQGTLVTVSS VL: DIQMTQSPSSLSASVGDRVTITCRASQSILSYVNWYQQKPGKAPKLLIYATTSRHSGVPSRFSGSGSGTDFTLTISSLQPEDFATYYCQQSYESPLTFGGGTKVEIK
Solution: 0.31 OD

// provenance: patent US20210380703A1
